- targetOrTestSystem: UniProt:P17252
pIC50: −log10 of the molar value. Structures can show the parent of a compound that is named as a salt.
Record Y whenever pIC50 is at 6 or higher; record N when lower.

Solved cases below.
CC(=O)OCC1CCCn2cc(c3ccccc32)C2=C(C(=O)NC2=O)c2cn(c3ccccc23)CC1 (centres unmarked)
N
CN(C)CC1CCn2cc(c3ccccc32)C2=C(C(=O)NC2=O)c2cn(c3ccccc23)CCCO1 (centres unmarked)
N
O=C1NC(=O)C2=C1c1cn(c3ccccc13)CCO[C@@H](CNS(=O)(=O)c1ccccc1)CCn1cc2c2ccccc21 [Example 21r]
N

Prompt line: Check if pIC50 >= 6 (inclusive). Item: "O=C1NC(=O)C2=C1c1cn(c3ccccc13)CCCCCCCn1cc2c2ccccc21"
Response line: N

Prompt line: Textbook exercise: given the entry CN(C)C[C@H]1CCCn2cc(c3ccccc32)C2=C(C(=O)NC2=O)c2cn(c3ccccc23)CC1 [Example 40s, hydrochloride salt] , state whether its pIC50 is greater than or equal to 6.
Response line: Y

* * *

I'd appreciate it if you could supply IC50 values for the items below.
- targetOrTestSystem: PKC-β2 (Homo sapiens)
- Sequence (P05771 1-673 isoform P05771-2): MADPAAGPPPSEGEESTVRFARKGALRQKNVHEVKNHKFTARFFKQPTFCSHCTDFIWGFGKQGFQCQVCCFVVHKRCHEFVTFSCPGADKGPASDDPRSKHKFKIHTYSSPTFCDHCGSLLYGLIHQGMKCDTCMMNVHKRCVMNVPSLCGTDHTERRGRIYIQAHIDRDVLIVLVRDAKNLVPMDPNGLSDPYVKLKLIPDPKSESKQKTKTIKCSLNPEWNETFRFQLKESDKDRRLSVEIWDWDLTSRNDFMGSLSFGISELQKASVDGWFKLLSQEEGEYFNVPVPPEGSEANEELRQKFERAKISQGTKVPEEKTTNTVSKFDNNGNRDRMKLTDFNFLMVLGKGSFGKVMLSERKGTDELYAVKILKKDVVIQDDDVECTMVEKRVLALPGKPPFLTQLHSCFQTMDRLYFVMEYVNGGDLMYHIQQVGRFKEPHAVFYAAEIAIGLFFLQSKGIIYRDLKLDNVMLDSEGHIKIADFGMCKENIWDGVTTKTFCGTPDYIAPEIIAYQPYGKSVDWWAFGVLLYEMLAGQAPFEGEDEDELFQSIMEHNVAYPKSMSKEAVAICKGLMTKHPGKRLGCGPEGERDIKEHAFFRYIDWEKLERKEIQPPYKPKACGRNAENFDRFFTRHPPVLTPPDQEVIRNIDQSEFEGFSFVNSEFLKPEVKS
Where a name gives a salt, the structure may show the parent alone.
Hi, when you answer, please include the unit after the number. Thanks!

Field: example entries. Status: answers known.
COCC1CCCn2cc(c3ccccc32)C2=C(C(=O)NC2=O)c2cn(c3ccccc23)CC1 (stereo not drawn) [Example 37]
40 nM
O=C1NC(=O)C2=C1c1cn(c3ccccc13)CCCCCCn1cc2c2ccccc21 [Example 28]
80 nM
O=C1NC(=O)C2=C1c1cn(c3ccccc13)CCO[C@@H](CNS(=O)(=O)c1ccccc1)CCn1cc2c2ccccc21 [Example 21r]
50 nM
CC(=O)NC[C@H]1CCn2cc(c3ccccc32)C2=C(C(=O)NC2=O)c2cn(c3ccccc23)CCO1 [Example 19r]
30 nM
O=C1NC(=O)C2=C1c1cn(c3ccccc13)CCOCC(CN1CCCC1)CCn1cc2c2ccccc21 (stereo not drawn) [Example 7, hydrochloride salt]
180 nM
O=C1NC(=O)C2=C1c1cn(c3ccccc13)CCOCC(CO)CCn1cc2c2ccccc21 (stereo not drawn) [Example 6]
35 nM
O=C1NC(=O)C2=C1c1cn(c3ccccc13)CCO[C@H](CN1CCOCC1)CCn1cc2c2ccccc21 [Example 24s]
380 nM
O=C1NC(=O)C2=C1c1cn(c3ccccc13)CCC(CO)CCn1cc2c2ccccc21 [Example 51]
500 nM

Please look at the items below and tell me IC50 for each one, in order.
1. NCC1CCCn2cc(c3ccccc32)C2=C(C(=O)NC2=O)c2cn(c3ccccc23)CC1 (stereo not drawn) [Example 33]
2. O=C1NC(=O)C2=C1c1cn(c3ccccc13)CCCC(CO)CCn1cc2c2ccccc21 (stereo not drawn) [Example 31]
3. O=C1NC(=O)C2=C1c1cn(c3ccccc13)CCO[C@@H](CNCc1ccccc1)CCn1cc2c2ccccc21 [Example 18r]

Response line:
["40 nM", "30 nM", "87 nM"]

* * *

- targetOrTestSystem: casein protein kinase II (Rattus norvegicus, UniProt P19139)
- Construct: isolated from rat brain homogenate
- Sequence (P19139 whole entry): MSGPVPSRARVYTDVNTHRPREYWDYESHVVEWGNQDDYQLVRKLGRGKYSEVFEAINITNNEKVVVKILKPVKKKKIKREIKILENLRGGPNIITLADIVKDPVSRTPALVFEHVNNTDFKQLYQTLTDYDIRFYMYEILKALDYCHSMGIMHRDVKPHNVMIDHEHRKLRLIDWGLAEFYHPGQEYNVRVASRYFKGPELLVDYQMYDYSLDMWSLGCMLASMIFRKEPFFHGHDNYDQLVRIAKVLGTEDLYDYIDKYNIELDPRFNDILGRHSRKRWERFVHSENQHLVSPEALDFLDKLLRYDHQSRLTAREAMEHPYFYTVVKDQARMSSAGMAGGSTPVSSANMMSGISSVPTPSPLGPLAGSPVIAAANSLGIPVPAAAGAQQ
- Sequence (P67874 2-215 partner limits assumed): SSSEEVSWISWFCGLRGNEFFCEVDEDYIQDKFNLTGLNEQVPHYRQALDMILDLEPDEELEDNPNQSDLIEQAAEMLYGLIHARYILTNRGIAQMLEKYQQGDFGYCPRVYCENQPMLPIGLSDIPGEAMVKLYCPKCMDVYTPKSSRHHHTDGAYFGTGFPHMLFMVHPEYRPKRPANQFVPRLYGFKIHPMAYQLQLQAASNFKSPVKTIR
- test: Casein Protein Kinase II Assay (CK-II)
- measurementSetup: Table 1
- Procedure: Casein Protein Kinase II Assay (CK-II) The Casein Protein Kinase II Assay is described in Neurochem. […] The assay components are in a total volume of 250 μL: 20 mM Tris-HCl, pH 7.5, 5 mM sodium fluoride, 50 mg/mL Casein (Sigma, St. Louis, Mo.), 10 mM magnesium chloride (Sigma, St. Louis, Mo.), 10 μL DMSO or DMSO/inhibitor and 30 μm (gamma-32P) ATP (DuPont). […] The precipitate is collected by vacuum filtration on glass fiber filters and quantified by counting in a beta scintillation counter. […]
pIC50: −log10 of the molar value. Where a name gives a salt, the structure may show the parent alone.
Assignment: determine reported pIC50 for the given molecules.

NCC1CCCn2cc(c3ccccc32)C2=C(C(=O)NC2=O)c2cn(c3ccccc23)CC1 (stereo not shown)
< 4.00
NCC1CCn2cc(c3ccccc32)C2=C(C(=O)NC2=O)c2cn(c3ccccc23)CCO1 (stereo not shown) [Example 4, trifluoroacetate salt]
< 4.00
CN(C)CC1CCn2cc(c3ccccc32)C2=C(C(=O)NC2=O)c2cn(c3ccccc23)CCO1 (stereo not shown) [Example 5, HCl Salt]
< 4.00

Please give pIC50 for each item listed below.
1. O=C1NC(=O)C2=C1c1cn(c3ccccc13)CCCC(CN(Cc1ccccc1)Cc1ccccc1)CCn1cc2c2ccccc21 (stereo not shown) [Example 35, trifluoroacetate salt]
2. O=C1NC(=O)C2=C1c1cn(c3ccccc13)CCO[C@@H](CNCc1ccccc1)CCn1cc2c2ccccc21 [Example 18r]
3. O=C1NC(=O)C2=C1c1cn(c3ccccc13)CCCC(CNCc1ccccc1)CCn1cc2c2ccccc21 (stereo not shown) [Example 34, trifluoroacetate salt]
4. O=C1NC(=O)C2=C1c1cn(c3ccccc13)CCO[C@H](CNCc1ccccc1)CCn1cc2c2ccccc21 [Example 18s]

Response line:
< 4.00
< 4.00
< 4.00
< 4.00

* * *

- targetOrTestSystem: PKC eta (Homo sapiens)
- Sequence (P24723 whole entry): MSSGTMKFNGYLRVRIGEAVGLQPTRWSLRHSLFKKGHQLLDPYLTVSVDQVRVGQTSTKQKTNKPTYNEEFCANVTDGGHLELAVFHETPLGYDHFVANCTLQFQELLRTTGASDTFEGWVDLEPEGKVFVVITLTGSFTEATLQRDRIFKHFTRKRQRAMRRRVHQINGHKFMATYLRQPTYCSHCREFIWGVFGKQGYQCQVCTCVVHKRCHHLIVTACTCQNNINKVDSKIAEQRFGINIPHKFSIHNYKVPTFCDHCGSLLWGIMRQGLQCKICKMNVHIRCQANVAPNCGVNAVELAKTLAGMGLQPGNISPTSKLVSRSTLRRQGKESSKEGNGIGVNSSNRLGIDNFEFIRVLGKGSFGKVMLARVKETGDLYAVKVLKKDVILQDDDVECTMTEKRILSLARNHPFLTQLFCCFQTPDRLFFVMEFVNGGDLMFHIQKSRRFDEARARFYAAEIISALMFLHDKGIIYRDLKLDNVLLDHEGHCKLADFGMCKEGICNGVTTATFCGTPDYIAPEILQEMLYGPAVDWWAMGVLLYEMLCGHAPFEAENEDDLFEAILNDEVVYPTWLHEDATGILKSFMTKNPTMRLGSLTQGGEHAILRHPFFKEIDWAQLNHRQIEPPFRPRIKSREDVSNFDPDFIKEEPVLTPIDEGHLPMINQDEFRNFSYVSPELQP
Counter-ions that a name gives are not always drawn.
experimentalReadout: IC50 (nM)
Answers are plain numbers, in nM.

Prompt line: Consider the molecule CN(C)CC1CCn2cc(c3ccccc32)C2=C(C(=O)NC2=O)c2cn(c3ccccc23)CCO1 (stereo not shown) [Example 5, HCl Salt] . State its measured IC50.
Response line: 35

* * *

Record: pIC50 reported on PKC-α (Homo sapiens, UniProt P17252).
Structures can show the parent of a compound that is named as a salt.
Answers are plain numbers, as −log10 of the molar value.

Some entries whose results are on file:
O=C1NC(=O)C2=C1c1cn(c3ccccc13)CCCC(CN(Cc1ccccc1)Cc1ccccc1)CCn1cc2c2ccccc21 (stereo not shown) [Example 35, trifluoroacetate salt]
5.05
O=C1NC(=O)C2=C1c1cn(c3ccccc13)CCO[C@@H](CNCc1ccccc1)CCn1cc2c2ccccc21 [Example 18r]
5.47
NC[C@@H]1CCn2cc(c3ccccc32)C2=C(C(=O)NC2=O)c2cn(c3ccccc23)CCO1
5.89
O=C1NC(=O)C2=C1c1cn(c3ccccc13)CCO[C@@H](CN1CCCC1)CCn1cc2c2ccccc21 [Example 20r]
6.05
NCC1CCCn2cc(c3ccccc32)C2=C(C(=O)NC2=O)c2cn(c3ccccc23)CC1 (stereo not shown) [Example 33]
6.40

Please find the next compound below.
Prompt line: Identify pIC50 associated with the compound O=C1NC(=O)C2=C1c1cn(c3ccccc13)CCO[C@H](CN1CCOCC1)CCn1cc2c2ccccc21 [Example 24s]
Response line: 5.46

* * *

- targetOrTestSystem: src (Homo sapiens)
- Sequence (P12931 whole entry, species assumed): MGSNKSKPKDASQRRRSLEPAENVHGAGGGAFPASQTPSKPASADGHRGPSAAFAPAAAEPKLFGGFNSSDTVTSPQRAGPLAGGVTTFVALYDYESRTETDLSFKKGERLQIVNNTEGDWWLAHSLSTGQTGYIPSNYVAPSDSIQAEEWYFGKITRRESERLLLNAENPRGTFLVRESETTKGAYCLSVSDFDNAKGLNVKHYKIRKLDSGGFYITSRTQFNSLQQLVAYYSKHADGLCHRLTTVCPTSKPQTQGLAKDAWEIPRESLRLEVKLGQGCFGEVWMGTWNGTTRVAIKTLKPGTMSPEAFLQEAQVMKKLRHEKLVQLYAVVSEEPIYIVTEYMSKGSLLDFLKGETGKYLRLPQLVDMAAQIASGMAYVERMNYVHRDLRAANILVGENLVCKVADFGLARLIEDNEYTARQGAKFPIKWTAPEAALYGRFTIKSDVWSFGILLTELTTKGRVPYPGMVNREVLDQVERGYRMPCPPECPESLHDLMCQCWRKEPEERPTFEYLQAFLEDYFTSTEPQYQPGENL
Where a name gives a salt, the structure may show the parent alone.
experimentalReadout: IC50

These solved cases illustrate the format of a correct answer.
NCC1CCn2cc(c3ccccc32)C2=C(C(=O)NC2=O)c2cn(c3ccccc23)CCCO1 (stereo not shown)
58 µM
O=C1NC(=O)C2=C1c1cn(c3ccccc13)CCCC(CNCc1ccccc1)CCn1cc2c2ccccc21 (stereo not shown) [Example 34, trifluoroacetate salt]
> 100 µM
O=C1CCCn2cc(c3ccccc32)C2=C(C(=O)NC2=O)c2cn(c3ccccc23)CCC1
> 100 µM
CC(=O)OCC1CCCn2cc(c3ccccc32)C2=C(C(=O)NC2=O)c2cn(c3ccccc23)CC1 (stereo not shown)
> 100 µM

Quick batch: IC50 for everything below.
1. O=C1NC(=O)C2=C1c1cn(c3ccccc13)CCCC(NCc1ccccc1)CCCn1cc2c2ccccc21
2. CN(C)CC1CCn2cc(c3ccccc32)C2=C(C(=O)NC2=O)c2cn(c3ccccc23)CCCO1 (stereo not shown)
3. CN(C)C[C@@H]1CCCn2cc(c3ccccc32)C2=C(C(=O)NC2=O)c2cn(c3ccccc23)CC1 [Example 40r, hydrochloride salt]

Response line:
> 125 µM
> 100 µM
71 µM

* * *

- targetOrTestSystem: calcium calmodulin dependent protein kinase
- test: Calcium Calmodulin Dependent Protein Kinase Assay (CAM)
- measurementSetup: Table 1
experimentalReadout: pIC50
Numbers only, as −log10 of the molar value.

O=C1NC(=O)C2=C1c1cn(c3ccccc13)CCCC(CO)CCn1cc2c2ccccc21 (stereo not drawn) [Example 31]
6.33

API: the following record is the query input.
Prompt line: // output pIC50; input O=C1NC(=O)C2=C1c1cn(c3ccccc13)CCCCCCn1cc2c2ccccc21 [Example 28] ; system calcium calmodulin dependent protein kinase
Response line: 5.70

* * *

A set of compounds tested on PKC-β1 (Homo sapiens, UniProt P05771), with measured log10(IC50):
Note: values are log10 of IC50 expressed in µM.

NC[C@H]1CCn2cc(c3ccccc32)C2=C(C(=O)NC2=O)c2cn(c3ccccc23)CCO1
-2.30
O=C1NC(=O)C2=C1c1cn(c3ccccc13)CCCOC(CNS(=O)(=O)c1ccccc1)CCn1cc2c2ccccc21 (stereo not shown)
0.46
O=C1NC(=O)C2=C1c1cn(c3ccccc13)CCCCCn1cc2c2ccccc21
-1.40
O=C1NC(=O)C2=C1c1cn(c3ccccc13)CCO[C@@H](CNS(=O)(=O)c1ccccc1)CCn1cc2c2ccccc21 [Example 21r]
-0.74
O=C(NC[C@H]1CCn2cc(c3ccccc32)C2=C(C(=O)NC2=O)c2cn(c3ccccc23)CCO1)OCc1ccccc1 [Example 25r]
-1.37
O=C1NC(=O)C2=C1c1cn(c3ccccc13)CCO[C@H](CNCc1ccccc1)CCn1cc2c2ccccc21 [Example 18s]
-0.42

Let us move to another entry and its log10(IC50).
Prompt line: Please list log10(IC50) recorded for the compound "O=C1NC(=O)C2=C1c1cn(c3ccccc13)CCCCCCCCn1cc2c2ccccc21"
Response line: 0.30

Sourced from patent US5696108A
